# System: TRAP-activated platelets
# assay info: Inhibition of TRAP-induced platelet aggregation after pre-incubation with peptide
# Format: cell-based, human (healthy volunteers)
# assay setup: S3 Table; peptide 5 μM; aggregation after TRAP; n=3
# Platelet aggregation remaining after TRAP (low = inhibition) per entry
Write the number on its own, no unit after it.

Check out these entries, answers already filled in.
Query: Request: Platelet aggregation remaining after TRAP (low = inhibition), test system TRAP-activated platelets, entry pal-KVGFFKR-RMKKKDEGSYD [B17p ITGA2b-JM2 U SDC4-JM, palmitylated chimeric peptide]
Result: 66

Query: Request: Platelet aggregation remaining after TRAP (low = inhibition), test system TRAP-activated platelets, entry pal-KVGAAKR-WEQLLTTIARTINEVENQI [B13p ITGA2b-JM2 U ACTN1-VBS, palmitylated chimeric peptide]
Result: 75

Query: Request: Platelet aggregation remaining after TRAP (low = inhibition), test system TRAP-activated platelets, entry pal-KVGAAKR-RMKKKDEGSYD [B16p ITGA2b-JM U SDC4-JM, palmitylated chimeric peptide]
Result: 72

Query: Request: Platelet aggregation remaining after TRAP (low = inhibition), test system TRAP-activated platelets, entry pal-KVGFFKR-LGKKPIYKK [B18p ITGA2b-JM U SDC4-middle, palmitylated chimeric peptide]
Result: 65

Query: Request: Platelet aggregation remaining after TRAP (low = inhibition), test system TRAP-activated platelets, entry pal-KVGFFKR-(NH2) [pal-ITGA2B_JM, N-terminally palmitylated ITGA2B juxtamembrane peptide KVGFFKR]
Result: 73

More entries:
Query: Request: Platelet aggregation remaining after TRAP (low = inhibition), test system TRAP-activated platelets, entry pal-APTNEFYA [pal-SDC4_tail, N-terminally palmitylated syndecan-4 tail peptide]
Result: 61

====

# Tested on: TRAP-activated platelets
# assay info: Inhibition of TRAP-induced platelet aggregation after pre-incubation with peptide
# Assay type: cell-based, human (healthy volunteers)
# assay setup: replicate donor g; TRAP 4 μM; pal 20 μM, tat 50 μM
# Aggregation after TRAP activation, donor g per entry
Write the number on its own, no unit after it.

Check out these entries, answers already filled in.
Query: Look up Aggregation after TRAP activation, donor g: pal-KLLITIHDRKE-(NH2) [pal-ITGB3_JM, N-terminally palmitylated ITGB3 juxtamembrane peptide]
Result: 68

Query: Look up Aggregation after TRAP activation, donor g: pal-LEEDDEEGE [pal-ITGA2B_tail, N-terminally palmitylated ITGA2B tail peptide]
Result: 4

More entries:
Query: Look up Aggregation after TRAP activation, donor g: pal-TNITYRGT [pal-ITGB3_tail, N-terminally palmitylated ITGB3 tail peptide]
Result: 63

Query: Look up Aggregation after TRAP activation, donor g: pal-APTNEFYA [pal-SDC4_tail, N-terminally palmitylated syndecan-4 tail peptide]
Result: 41

====

# Tested on: resting platelets
# assay info: Platelet aggregation induced by peptide in resting washed platelets (activation)
# Format: cell-based, human (healthy volunteers)
# assay setup: replicate 20_06_13; SDC4 peptides and controls, 20 μM; in % (unit assumed)
metric name: Activation, donor 20_06_13
Write the number on its own, no unit after it.

Query: Look up Activation, donor 20_06_13: Pal-RMKKKDEGSYD-LGKKPIYKK [pal-SDC4-JM U SDC4-middle, palmitylated chimeric peptide of SDC4 juxtamembrane and middle regions]
Result: 1

Query: Look up Activation, donor 20_06_13: pal-RMKKKDEGSYD-(NH2) [pal-SDC4_JM, N-terminally palmitylated syndecan-4 juxtamembrane peptide]
Result: 2

Query: Look up Activation, donor 20_06_13: KIKGPKLKY [pal-SDC4_middle Control 1, scrambled control of pal-SDC4_middle, reference compound]
Result: 0

Query: Look up Activation, donor 20_06_13: YKDSMERDKGK [pal-SDC4_JM Control 1, scrambled control of pal-SDC4_JM, reference compound]
Result: 66

Query: Look up Activation, donor 20_06_13: pal-APTNEFYA [pal-SDC4_tail, N-terminally palmitylated syndecan-4 tail peptide]
Result: 2

From here, focus on the item given below.
Query: Look up Activation, donor 20_06_13: pal-LGKKPIYKK-(NH2) [pal-SDC4_middle, N-terminally palmitylated syndecan-4 middle (variable) region peptide]
Result: 2

====

# Activation, donor 18_06_13 per entry
# System: resting platelets
# assay info: Platelet aggregation induced by peptide in resting washed platelets (activation)
# Type: cell-based, human (healthy volunteers)
# assay setup: replicate 18_06_13; SDC4 peptides and controls, 20 μM; in % (unit assumed)
Write the number on its own, no unit after it.

Query: Look up Activation, donor 18_06_13: KIKGPKLKY [pal-SDC4_middle Control 1, scrambled control of pal-SDC4_middle, reference compound]
Result: 4

More entries:
Query: Look up Activation, donor 18_06_13: pal-LGKKPIYKK-(NH2) [pal-SDC4_middle, N-terminally palmitylated syndecan-4 middle (variable) region peptide]
Result: -1

Query: Look up Activation, donor 18_06_13: YKDSMERDKGK [pal-SDC4_JM Control 1, scrambled control of pal-SDC4_JM, reference compound]
Result: 68

Query: Look up Activation, donor 18_06_13: Pal-KKAPTNEFYA [Pal-KK-SDC4-tail, palmitylated, slightly extended SDC4 tail peptide …]
Result: -1

Query: Look up Activation, donor 18_06_13: pal-APTNEFYA [pal-SDC4_tail, N-terminally palmitylated syndecan-4 tail peptide]
Result: 3

Query: Look up Activation, donor 18_06_13: Pal-LGKKPIYKK-APTNEFYA [pal-SDC4-middle U SDC4-tail, palmitylated chimeric peptide of SDC4 middle and tail regions]
Result: 3

Query: Look up Activation, donor 18_06_13: pal-RMKKKDEGSYD-(NH2) [pal-SDC4_JM, N-terminally palmitylated syndecan-4 juxtamembrane peptide]
Result: 1

Query: Look up Activation, donor 18_06_13: Pal-RMKKKDEGSYD-LGKKPIYKK [pal-SDC4-JM U SDC4-middle, palmitylated chimeric peptide of SDC4 juxtamembrane and middle regions]
Result: 2

Query: Look up Activation, donor 18_06_13: Pal-RMKKKDEGSYD-APTNEFYA [pal-SDC4-JM U SDC4-tail, palmitylated chimeric peptide of SDC4 juxtamembrane and tail regions]
Result: 2

====

# Tested on: TRAP-activated platelets
# assay info: Inhibition of TRAP-induced platelet aggregation after pre-incubation with peptide
# Assay type: cell-based, human (healthy volunteers)
# assay setup: platelet aggregation induced by 4 μM TRAP in platelets pre-incubated with peptide (low value = inhibition); pal-peptides 20 μM, tat-peptides 50 μM; mean, n>=3
Marks after values point to notes of the source that are not given here.
# Platelet aggregation after TRAP activation per entry

Query: Look up Platelet aggregation after TRAP activation: pal-RMKKKDEGSYD-(NH2) [pal-SDC4_JM, N-terminally palmitylated syndecan-4 juxtamembrane peptide]
Result: 4 ^*

More entries:
Query: Look up Platelet aggregation after TRAP activation: pal-LGKKPIYKK-(NH2) [pal-SDC4_middle, N-terminally palmitylated syndecan-4 middle (variable) region peptide]
Result: 3 ^*

Query: Look up Platelet aggregation after TRAP activation: tat-WEQLLTTIARTINEVENQI-(NH2) [tat-ACTN1_VBS]
Result: 61 ^*

Query: Look up Platelet aggregation after TRAP activation: pal-APTNEFYA [pal-SDC4_tail, N-terminally palmitylated syndecan-4 tail peptide]
Result: 34 ^*

====

# Platelet aggregation remaining after TRAP (low = inhibition) per entry
# Test system: TRAP-activated platelets
# assay info: Inhibition of TRAP-induced platelet aggregation after pre-incubation with peptide
# Format: cell-based, human (healthy volunteers)
# assay setup: S3 Table; peptide 5 μM; aggregation after TRAP; n=3
# Procedure: Blood was drawn from healthy volunteers into a syringe containing a final volume of 15% Acid Citrate Dextrose (ACD). […] A platelet concentration of 3x10^5 /μl was used when performing standard aggregations and a concentration of 1x10^6 /μl was used for sample preparation for western blot analysis. The extent of platelet aggregation was measured by quantifying the optical density of the samples using the Bio-Data PAP-8 aggregometer (platelet aggregation profiler, Horsham, PA, USA). […]
Write the number on its own, no unit after it.

Query: Look up Platelet aggregation remaining after TRAP (low = inhibition): pal-KVGAAKR-TLELDRLMASLS [B21p ITGA2b-JM2 U TGFB1I1-LD, palmitylated chimeric peptide]
Result: 70

Query: Look up Platelet aggregation remaining after TRAP (low = inhibition): pal-KVGFFKR-FAKFEEERAR [B15p ITGA2b-JM U ITGB3-middle1, palmitylated chimeric peptide]
Result: 72

Query: Look up Platelet aggregation remaining after TRAP (low = inhibition): pal-KVGFFKR-WEQLLTTIARTINEVENQI [B12p ITGA2b-JM U ACTN1-VBS, palmitylated chimeric peptide]
Result: 74

From here, focus on the item given below.
Query: Look up Platelet aggregation remaining after TRAP (low = inhibition): pal-TLELDRLMASLS [B23p TGFB1I1-LD, palmitylated TGFB1I1 LD peptide]
Result: 73

====

# System: resting platelets
# assay info: Platelet aggregation induced by peptide in resting washed platelets (activation)
# Type: cell-based, human (healthy volunteers)
# assay setup: replicate 14_06_13; SDC4 peptides and controls, 20 μM; unit assumed
metric name: Activation, donor 14 06 13 (%)
Kindly provide the numeric value in % only, without the unit symbol.

Query: Look up Activation, donor 14 06 13: pal-LGKKPIYKK-(NH2) [pal-SDC4_middle, N-terminally palmitylated syndecan-4 middle (variable) region peptide]
Result: 1

Query: Look up Activation, donor 14 06 13: pal-RMKKKDEGSYD-(NH2) [pal-SDC4_JM, N-terminally palmitylated syndecan-4 juxtamembrane peptide]
Result: 1

Query: Look up Activation, donor 14 06 13: KIKGPKLKY [pal-SDC4_middle Control 1, scrambled control of pal-SDC4_middle, reference compound]
Result: 4

Query: Look up Activation, donor 14 06 13: Pal-RMKKKDEGSYD-LGKKPIYKK [pal-SDC4-JM U SDC4-middle, palmitylated chimeric peptide of SDC4 juxtamembrane and middle regions]
Result: 0

More entries:
Query: Look up Activation, donor 14 06 13: Pal-KKAPTNEFYA [Pal-KK-SDC4-tail, palmitylated, slightly extended SDC4 tail peptide …]
Result: 2

Query: Look up Activation, donor 14 06 13: pal-APTNEFYA [pal-SDC4_tail, N-terminally palmitylated syndecan-4 tail peptide]
Result: 2

Query: Look up Activation, donor 14 06 13: Pal-RMKKKDEGSYD-APTNEFYA [pal-SDC4-JM U SDC4-tail, palmitylated chimeric peptide of SDC4 juxtamembrane and tail regions]
Result: 3

Query: Look up Activation, donor 14 06 13: Pal-LGKKPIYKK-APTNEFYA [pal-SDC4-middle U SDC4-tail, palmitylated chimeric peptide of SDC4 middle and tail regions]
Result: 3

Query: Look up Activation, donor 14 06 13: YKDSMERDKGK [pal-SDC4_JM Control 1, scrambled control of pal-SDC4_JM, reference compound]
Result: 69
